We begin with a simple list: items and their reported TGI.
Tested on: NCI-H522 lung
experimental.protocol: NCI tumour cell line growth inhibition, 48 h
Give a bare numeral; the unit µM is implied.

Known TGI results, listed for orientation:
O=C1C=C(N2CCN(CCOCCO)CC2)C(=O)c2c(O)ccc(O)c21: 5.75
C=CC[C@H](N=C(SC)SC)C(=O)N1C(=O)N(C)[C@@H](C)[C@H]1c1ccccc1: 54.1
O=C1N(c2ccccc2)C(=S)/C(=C/c2ccc(Cl)cc2)N1c1ccc(Cl)cc1: 38.4
CN(C)CCCNC(=O)c1cn2c(ccc3sc4ccccc4c(=O)c32)n1: 32.4
CCOC(=O)CCC(NC(=O)c1ccc(Nc2nc3ccccc3nc2C(=O)OCC)cc1)C(=O)OCC (centres undefined): 16.7
CN(C)/C=C/C=C(/C=N/S(=O)(=O)C(F)(F)F)C1C=CN(S(=O)(=O)C(F)(F)F)C=C1: 52.4
O=c1[nH]c2ccc([N+](=O)[O-])cc2nc1/C=C(\O)c1ccccc1: 34.6

Which value of TGI has been reported for Nc1nc(N)c2c(n1)NC(c1sc(Cl)nc1Cl)CC(c1ccc3c(c1)OCO3)=N2 (centres undefined) in the records?
13

###

Listing of recorded TGI by entry.
Test system: 786-0 renal
experimental.protocol: NCI tumour cell line growth inhibition, 48 h

// below: answered compounds
Cc1csc(-n2c(C)nc3cc(Cl)ccc3c2=O)n1: > 100 µM
COc1cc2c3c(cc(Cl)nc3c1OC)C(O)(CC(=O)c1ccccc1)C(=O)N2 (configuration not stated): 22 µM

// returns reported TGI for input `Cc1ccc(S[C@@H](C)[C@@](O)(C(N)=O)c2ccccc2)cc1`
> 100 µM

###

Tested on: KM20L2 colon
experimental.protocol: NCI tumour cell line growth inhibition, 48 h
experimental.endpoint: TGI (µM)
Write the answer as a number in µM, unit excluded.

c1ccc(-c2ccnc3c2ccc2c(-c4ccccc4)ccnc23)cc1: 16.5

Could you now consider this next compound?
Fill in the blank: the reported TGI of `C/C(=N\NS(=O)(=O)c1ccc([N+](=O)[O-])cc1)c1ccc[n+]([O-])n1` is ____.
19.5

###

Examples of compounds with documented log10 of TGI follow.
Tested on: HL-60(TB) leukemia
experimental.protocol: NCI tumour cell line growth inhibition, 48 h
All values: base-10 log of TGI in µM.

In the examples that follow, each entry is paired with its recorded log10 of TGI.
CC1=C(N2CC2)C(=O)c2ccccc2C1=O: 1.23
CC1(C)CC(=O)C2=C(C1)OC1(CC2c2ccc(Cl)cc2)CC(c2ccc(Cl)cc2)C2=C(CC(C)(C)CC2=O)O1 (centres undefined): 1.38
CN1CCN([C@H]2C[C@H]3[C@@H]4CC=C5C[C@@H](O)CC[C@]5(C)[C@H]4CC[C@]3(C)[C@H]2O)CC1: 1.60
C=CC(C)(O)CC/C=C(\CO)C(=O)OC1C(C)OC(O[C@](C)(C=C)CC/C=C(\CO)C(=O)O[C@H]2C[C@@]3(C(=O)OC4OC(CO)C(O)C(O)C4OC4OC(C)C(OC5OC(CO)C(O)C5O)C(OC5OC(CO)C(O)C(O)C5O)C4O)C(CC2(C)C)C2=CCC4[C@@]5(C)CC[C@H](OC6OC(COC7OC(C)C(O)C(O)C7OC7OCC(O)C(O)C7O)C(O)C(O)C6NC(C)=O)C(C)(C)C5CC[C@@]4(C)[C@]2(C)C[C@H]3O)C(O)C1O (some centres undefined): 0.40
CN(C)/C=C/C=C(/C=N/S(=O)(=O)C(F)(F)F)C1C=CN(S(=O)(=O)C(F)(F)F)C=C1: 1.67

I have this compound here, `O=CCCCC(Sc1ccccc1)Sc1ccccc1` , and I need its recorded log10 of TGI.
1.89

// query log10 of TGI value for entry `O=P(O)(O)CN1CCNCCN(CP(=O)(O)O)CC1`
1.26

Which log10 of TGI is listed for `CCCN1CCC=C(c2ccc(Nc3nc(Nc4ccccc4C(N)=O)c4cc[nH]c4n3)c(C)c2)C1` ?
0.84

###

Tested on: SR leukemia
experimental.protocol: NCI tumour cell line growth inhibition, 48 h
experimental.endpoint: TGI

Example compounds with recorded TGI:
O=C1CC(c2ccccc2)S(=O)c2ccccc2N1 (centres undefined): > 100 µM
COC(=O)C(=O)C(C(=O)C(=O)Nc1cc(Cl)c(Cl)cc1Cl)c1nc2ccc([N+](=O)[O-])cc2[nH]c1=O (centres undefined): > 100 µM
O=C(NOCCO)c1cc(CN2OCCCC2=O)c(F)c(F)c1Nc1ccc(I)cc1F: > 100 µM
O=c1[nH]c2ccc([N+](=O)[O-])cc2nc1/C=C(\O)c1ccccc1: > 100 µM
Cc1cc(Nc2nc(-c3ccncc3)nc3ccccc23)n[nH]1: 47.7 µM
O=C(/C=C/c1ccc([N+](=O)[O-])cc1)c1cccc(Nc2nc(Nc3ccccc3)nc(Nc3ccccc3)n2)c1: 6.92 µM
COc1ccc(C2=NC(c3ccc(Cl)cc3)C(c3ccc(Cl)cc3)N2C(=O)N2CCNC(=O)C2)c(OC(C)C)c1 (centres undefined): 5.89 µM
CC(=O)OC(=O)O/C=C\CCl: > 100 µM

# evaluate next
I am curious: what TGI value has been reported for COC(=O)C1c2cc3c(c(O)c2C(O)CC1(C)O)C(=O)c1c(O)cc2c(c1C3=O)OC1OC2(C)C(O)C(N(C)C)C1O (centres undefined) ?
> 100 µM

###

Tested on: SF-268 CNS
experimental.protocol: NCI tumour cell line growth inhibition, 48 h
Parameter TGI: see the listing below.

Cc1ccc(S(=NS(=O)(=O)c2ccc(C)cc2)c2ccc(C)cc2)cc1: > 100 µM
O=C(Nc1ccc2ccccc2c1)c1cc2cc(CCl)ccc2oc1=O: 73.5 µM
CC(=O)OC(=O)O/C=C\CCl: > 100 µM

Moving on to another compound below.
For `COc1ccc2c([nH]c3c(O)c(-c4c(C)cc5c([nH]c6c(CC=C(C)C)c(OC)ccc65)c4O)c(C)cc32)c1CC=C(C)C` , what is its reported TGI?
> 100 µM

###

Readings of log10 TGI for the listed molecules
Tested on: RPMI-8226 leukemia
experimental.protocol: NCI tumour cell line growth inhibition, 48 h
Log scale reminder: TGI in µM, then log10 taken.

Some solved cases for reference:
CN=C(N)N/N=C(\C)c1ccc2c(c1)Cc1ccccc1-2: 0.62
O=[N+]([O-])/C(C(Cl)=C(Cl)Cl)=C(/Nc1ccccc1)Sc1ccccc1: 1.82
COCCN1C(=O)C2c3[nH]c4ccccc4c3C3CCC(C(C)(C)C)CC3C2C1=O (stereo not given): 1.60
CN1CCN([C@H]2C[C@H]3[C@@H]4CC=C5C[C@@H](O)CC[C@]5(C)[C@H]4CC[C@]3(C)[C@H]2O)CC1: 1.70

Next up:
Endpoint output: log10 TGI of `COc1ccc2c(c1)/C(=N/OC(C)=O)c1c-2cnc2ccccc12` . Value?
1.91

###

Measured TGI of individual entries
Tested on: SK-MEL-2 melanoma
experimental.protocol: NCI tumour cell line growth inhibition, 48 h
# number only, unit µM dropped from output

Use the examples below as a reference point.
O=C(c1ccc2ccccc2c1)c1c(C(F)(F)F)n([O-])c2ccc(F)cc2[n+]1=O: 2.82
COC(=O)c1cc(/C=C\c2cc(OC)ccc2OC)ccc1OC: 74.2
COc1cccc2c1cc1c3c(cc4c(c32)OCO4)C(=O)N1: 44.2

TGI lookup needed for `O=C1c2cc([N+](=O)[O-])sc2C(=O)c2c([N+](=O)[O-])csc21` , thanks.
3.77

###

System: HS 578T breast
experimental.protocol: NCI tumour cell line growth inhibition, 48 h
Where a SMILES comes first, the peptide text is derived from it. The star is where a group is joined. Trt = c1ccc(C(c2ccccc2)(c2ccccc2)*)cc1; Cbz = O=C(OCc1ccccc1)*
experimental.endpoint: TGI (µM)
# output: bare number, implied unit µM

CC(C)(C)[Si](C)(C)OC[C@H](/C=C\CCCC(=O)O)NC1(c2ccccc2)c2ccccc2-c2ccccc21: 50.5

Now look at this entry.
Any idea what TGI came out for COC(=O)C(CSC(c1ccccc1)(c1ccccc1)c1ccccc1)NC(=O)C(CC(N)=O)NC(=O)OCc1ccccc1 (stereo not drawn) (Cbz-Asn-Cys(Trt)-OMe; configuration not given here) on HS 578T breast?
26.5

###

Tested on: A498 renal
experimental.protocol: NCI tumour cell line growth inhibition, 48 h
Below, each of the compounds is paired with its reported TGI value.
Report the figure in µM without appending any unit label.

CC1OC(=O)C(C(C)C)NC(=O)C(C(C)C)OC(=O)C(C(C)C)NC(=O)C(C)OC(=O)C(C(C)C)NC(=O)C(C(C)C)OC(=O)C(C(C)C)NC(=O)C(C)OC(=O)C(C(C)C)NC(=O)C(C(C)C)OC(=O)C(C(C)C)NC1=O (stereo not drawn): 0.0383

Fill in the blank: the reported TGI of `Nc1c(C(=O)Nc2cccc3ccccc23)sc2nc3c(cc12)C(=O)CCC3` is ____.
1.55

For CC1(C)CC(=O)C2=C(C1)OC1(CC2c2ccc(Cl)cc2)CC(c2ccc(Cl)cc2)C2=C(CC(C)(C)CC2=O)O1 (stereo not drawn) , what is its reported TGI?
31

// returns reported TGI for input `Cc1c(Cl)c(C)c(Cc2c(C)c(Cl)c(C)c(Cl)c2O)c(O)c1Cl`
6.35
